- system: AR protein (Homo sapiens, UniProt P10275)
- Construct: degradation activity of the compounds disclosed in the present disclosure on AR protein in VCaP cells; host or cells: VCaP
- Sequence (P10275 whole entry): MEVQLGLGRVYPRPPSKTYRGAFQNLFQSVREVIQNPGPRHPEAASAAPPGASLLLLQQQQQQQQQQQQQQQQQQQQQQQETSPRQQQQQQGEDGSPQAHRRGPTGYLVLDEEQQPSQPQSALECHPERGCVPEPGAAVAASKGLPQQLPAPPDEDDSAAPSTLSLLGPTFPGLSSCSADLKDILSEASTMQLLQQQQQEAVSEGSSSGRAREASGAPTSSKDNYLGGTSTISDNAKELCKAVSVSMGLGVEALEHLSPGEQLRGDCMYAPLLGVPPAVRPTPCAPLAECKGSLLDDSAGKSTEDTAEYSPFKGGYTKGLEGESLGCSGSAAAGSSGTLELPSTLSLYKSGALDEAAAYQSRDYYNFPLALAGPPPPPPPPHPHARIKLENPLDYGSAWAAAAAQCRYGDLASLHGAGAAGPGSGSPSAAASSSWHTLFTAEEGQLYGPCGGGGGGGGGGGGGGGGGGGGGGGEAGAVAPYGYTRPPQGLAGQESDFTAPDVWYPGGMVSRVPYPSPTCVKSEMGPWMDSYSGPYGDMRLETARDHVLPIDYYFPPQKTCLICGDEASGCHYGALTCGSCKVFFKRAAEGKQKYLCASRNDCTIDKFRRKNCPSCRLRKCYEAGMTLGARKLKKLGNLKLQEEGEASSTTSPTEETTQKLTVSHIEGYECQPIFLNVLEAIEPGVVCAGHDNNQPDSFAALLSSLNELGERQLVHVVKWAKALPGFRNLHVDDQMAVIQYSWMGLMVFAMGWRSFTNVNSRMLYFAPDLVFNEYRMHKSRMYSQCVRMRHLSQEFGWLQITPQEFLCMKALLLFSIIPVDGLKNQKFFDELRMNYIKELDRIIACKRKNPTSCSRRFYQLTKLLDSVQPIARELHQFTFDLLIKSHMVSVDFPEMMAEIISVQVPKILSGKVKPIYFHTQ
- assay.remarks: Degradation of AR protein in VCaP cells (Western blot)
- Type: cell-based
- condition.context: compound at 100 nM, 8 hours, read-out: Degradation rate of the AR protein in VCaP cells, 100 nM (%)
property.label: inhibition at 0.1 µM (%)
Field: numeric (%). Do not append units.

// solved cases for inhibition at 0.1 µM follow
compound	inhibition at 0.1 µM / %
COc1cc(O[C@H]2C(C)(C)[C@H](NC(=O)c3ccc(N4CCC(C)(CN5CC6(CCc7cc8c(cc7O6)C(=O)N(C6CCC(=O)NC6=O)C8)C5)CC4)cc3)C2(C)C)ccc1C#N (some centres unmarked) [Compound 265]	78
COc1cc(O[C@H]2C(C)(C)[C@H](NC(=O)c3ccc(N4CCC(CN5CC6(CCc7cc8c(cc7O6)C(=O)N(C6CCC(=O)NC6=O)C8=O)C5)CC4)cc3)C2(C)C)ccc1C#N (some centres unmarked) [Compound 277]	54
N#Cc1ccc(O[C@H]2CC[C@H](NC(=O)c3ccc(N4CCC5(CC4)COc4cc6c(cc45)C(=O)N(C4CCC(=O)NC4=O)C6=O)nn3)CC2)cc1Cl (some centres unmarked) [Compound 52]	26
N#Cc1ccc(O[C@H]2CC[C@H](NC(=O)c3ccc(N4CCC(C#N)(CN5CCC6(CC5)COc5c6ccc6c5CN(C5CCC(=O)NC5=O)C6=O)CC4)nn3)CC2)cc1Cl (some centres unmarked) [Compound 156]	75

In the following, a different compound is considered.
### Prompt Bench note: what inhibition at 0.1 µM did COc1cc(O[C@H]2C(C)(C)[C@H](NC(=O)c3ccc(N4CCC(C)(CN5CCC6(CCc7cc8c(cc7O6)C(=O)N(C6CCC(=O)NC6=O)C8=O)CC5)CC4)cc3)C2(C)C)ccc1C#N (some centres unmarked) [Compound 287] show?
### Response 13
